Test system: luciferase-based reporter constructs in S2R+ cells
Experiment: Luciferase-based mutation reporter assay (sgRNA mutation efficiency)
Type: cell-based, Drosophila
Conditions: sgRNAs with no mismatches targeting luciferase-based reporter in S2R+ cells; mutation rate = 1/Firefly luciferase normalized to Renilla
Excerpt: The luciferase reporter vector was constructed by PCR amplifying the metallothionein promoter from pMK33 and luciferase gene from pGL3 (Table 1) and combining these with annealed oligos containing a gRNA target site (Table 1 and Table 2) and a custom made cloning vector using Golden Gate assembly. […]
Mean efficiency overview
Field format: numeric only.

substance	Mean efficiency
TTGGCCGCGACCTGTTTATC: sgRNA targeting a luciferase-based reporter construct, no mismatches (chemistry not given here)	0.9282
CCGCCGTGTGCTGCGAATAC: sgRNA targeting a luciferase-based reporter construct, no mismatches (chemistry not given here)	0.1661

Enquiry: Need Mean efficiency of GTGCTGCGCCAACCCAAATA: sgRNA targeting a luciferase-based reporter construct, no mismatches (chemistry not given here) , thanks.
Return: 0.0849

Enquiry: Dear colleague, I am looking for the recorded Mean efficiency of the following substance: GCTCTGGACCATACGGGGAT: sgRNA targeting a luciferase-based reporter construct, no mismatches (chemistry not given here)
Return: 0.1746

Enquiry: # query: Mean efficiency of entry CGAATTACTACGTAGAGCGG: sgRNA targeting a luciferase-based reporter construct, no mismatches (chemistry not given here)
Return: 0.1117

* * *

System: luciferase-based reporter constructs in S2R+ cells
Assay: Luciferase-based mutation reporter assay (sgRNA mutation efficiency)
Assay type: cell-based, Drosophila
Conditions: sgRNAs with no mismatches targeting luciferase-based reporter in S2R+ cells; mutation rate = 1/Firefly luciferase normalized to Renilla
Listing of recorded Mean efficiency by entry.
A bare number is all that is needed in reply.

Observe how each entry below is paired with its result.
substance	assayed.target	observed.measurement
CAGGCATTGTGACGACGCGC: sgRNA targeting a luciferase-based reporter construct, no mismatches (chemistry not given here)	luciferase-based reporter constructs in S2R+ cells	0.1744
GACCGGATTCGCTACAACCC: sgRNA targeting a luciferase-based reporter construct, no mismatches (chemistry not given here)	luciferase-based reporter constructs in S2R+ cells	0.6963
TCGTACCGCACCGGTATTTT: sgRNA targeting a luciferase-based reporter construct, no mismatches (chemistry not given here)	luciferase-based reporter constructs in S2R+ cells	0.1565
TTCTCCGCTGTTATCCTATA: sgRNA targeting a luciferase-based reporter construct, no mismatches (chemistry not given here)	luciferase-based reporter constructs in S2R+ cells	0.08182

Enquiry: What Mean efficiency value was documented for this substance, AGGGAGTCCGCATAGGCGGC: sgRNA targeting a luciferase-based reporter construct, no mismatches (chemistry not given here) ?
Return: 0.1819

* * *

System: luciferase-based reporter constructs in S2R+ cells
Test: Luciferase-based mutation reporter assay (sgRNA mutation efficiency)
Format: cell-based, Drosophila
Conditions: sgRNAs with no mismatches targeting luciferase-based reporter in S2R+ cells; mutation rate = 1/Firefly luciferase normalized to Renilla
Returns: string. Value is Y if measured Mean efficiency is below 0.3, and N if it is greater than or equal to it.

substance	cat
CGCCGGCACCGCGTCCCTAT: sgRNA targeting a luciferase-based reporter construct, no mismatches (chemistry not given here)	Y
CAAGCAAGTCCGGTCGGTTG: sgRNA targeting a luciferase-based reporter construct, no mismatches (chemistry not given here)	N
TGTTCCCTACACGGCGCCAG: sgRNA targeting a luciferase-based reporter construct, no mismatches (chemistry not given here)	Y
GGTTACCAACTCAGGACCCG: sgRNA targeting a luciferase-based reporter construct, no mismatches (chemistry not given here)	N
TAAGACATACGTACGCCCAG: sgRNA targeting a luciferase-based reporter construct, no mismatches (chemistry not given here)	Y

# ---- query substance ----
Enquiry: Lab note: confirm whether the reported Mean efficiency for this substance is below 0.3, equality not counting. substance: CTGGGCCGGCGTGTCCGTTC: sgRNA targeting a luciferase-based reporter construct, no mismatches (chemistry not given here)
Return: N

* * *

Test system: luciferase-based reporter constructs in S2R+ cells
Assay: Luciferase-based mutation reporter assay (sgRNA mutation efficiency)
Format: cell-based, Drosophila
Conditions: sgRNAs with no mismatches targeting luciferase-based reporter in S2R+ cells; mutation rate = 1/Firefly luciferase normalized to Renilla
Binary call on Mean efficiency with cut-off 0.3: strictly below means MET, and equality or higher means NOT MET.

substance	cat
TCGATGACGCCCGGGTTAAC: sgRNA targeting a luciferase-based reporter construct, no mismatches (chemistry not given here)	MET

Enquiry: # strict comparison: is reported Mean efficiency < 0.3? input = ACCGAAAGTCGCGCCGGACG: sgRNA targeting a luciferase-based reporter construct, no mismatches (chemistry not given here)
Return: MET

Enquiry: Regarding CAGCCTCTCCCTGCGGATGC: sgRNA targeting a luciferase-based reporter construct, no mismatches (chemistry not given here) , kindly confirm whether its Mean efficiency is beneath 0.3.
Return: MET

Enquiry: hey, is Mean efficiency for TCGAGGATGGGACGCTTATC: sgRNA targeting a luciferase-based reporter construct, no mismatches (chemistry not given here) lower than 0.3 or not?
Return: NOT MET

Enquiry: Does the reported Mean efficiency of the following substance sit strictly below 0.3? GGTTCACTATTGGGGCGATC: sgRNA targeting a luciferase-based reporter construct, no mismatches (chemistry not given here)
Return: MET

* * *

Tested on: luciferase-based reporter constructs in S2R+ cells
Assay: Luciferase-based mutation reporter assay (sgRNA mutation efficiency)
Assay type: cell-based, Drosophila
Settings: sgRNAs with no mismatches targeting luciferase-based reporter in S2R+ cells; mutation rate = 1/Firefly luciferase normalized to Renilla
quantity.kind: Mean efficiency
I'd appreciate a reply containing only the number, no unit.

substance	assayed.target	Mean efficiency
CGACGTTCCTGGCTCAATTG: sgRNA targeting a luciferase-based reporter construct, no mismatches (chemistry not given here)	luciferase-based reporter constructs in S2R+ cells	0.9067
TGCGGTCGCGTGAGAAATAT: sgRNA targeting a luciferase-based reporter construct, no mismatches (chemistry not given here)	luciferase-based reporter constructs in S2R+ cells	0.02876
AGACTGGTTTCCACCCGCTC: sgRNA targeting a luciferase-based reporter construct, no mismatches (chemistry not given here)	luciferase-based reporter constructs in S2R+ cells	1.298
GGCACCGGGTAGCCTTGCGC: sgRNA targeting a luciferase-based reporter construct, no mismatches (chemistry not given here)	luciferase-based reporter constructs in S2R+ cells	0.3497

Enquiry: # input substance: TGCGCTTACCGACGATTGGG: sgRNA targeting a luciferase-based reporter construct, no mismatches (chemistry not given here) ; wanted: its Mean efficiency
Return: 0.1109

Enquiry: For CTTCCGACCCTTCGTTAGCC: sgRNA targeting a luciferase-based reporter construct, no mismatches (chemistry not given here) , what is its reported Mean efficiency?
Return: 0.1815

Enquiry: Entry ACGCGCACGGGTCTCACGCC: sgRNA targeting a luciferase-based reporter construct, no mismatches (chemistry not given here) has what Mean efficiency?
Return: 0.3288

* * *

Tested on: luciferase-based reporter constructs in S2R+ cells
Assay: Luciferase-based mutation reporter assay (sgRNA mutation efficiency)
Format: cell-based, Drosophila
Conditions: sgRNAs with no mismatches targeting luciferase-based reporter in S2R+ cells; mutation rate = 1/Firefly luciferase normalized to Renilla
Mark yes only for Mean efficiency values smaller than 0.3; exact matches and larger values are no.

substance	cat
ACCGCCAAACGGACCGCTTA: sgRNA targeting a luciferase-based reporter construct, no mismatches (chemistry not given here)	no
ATCTGGTCAGGACGCAAAGC: sgRNA targeting a luciferase-based reporter construct, no mismatches (chemistry not given here)	yes
GTGTCCAGGCTCGTCATGCC: sgRNA targeting a luciferase-based reporter construct, no mismatches (chemistry not given here)	no
CCTTCGCGAGCACCCGGAAA: sgRNA targeting a luciferase-based reporter construct, no mismatches (chemistry not given here)	no

Now turn to the next substance.
Enquiry: Is it true that Mean efficiency reported for GCCCGAAAGACACGTTTTTT: sgRNA targeting a luciferase-based reporter construct, no mismatches (chemistry not given here) is less than 0.3?
Return: yes

* * *

System: luciferase-based reporter constructs in S2R+ cells
Test: Luciferase-based mutation reporter assay (sgRNA mutation efficiency)
Type: cell-based, Drosophila
Details: sgRNAs with no mismatches targeting luciferase-based reporter in S2R+ cells; mutation rate = 1/Firefly luciferase normalized to Renilla
Rule: 1 for Mean efficiency not less than 0.2, 0 for anything less.

A selection of reference data follows.
substance	cat
CGTCGTTCTCGCCACCGCGC: sgRNA targeting a luciferase-based reporter construct, no mismatches (chemistry not given here)	0
CTGCCGTTCTTCAGAAATAT: sgRNA targeting a luciferase-based reporter construct, no mismatches (chemistry not given here)	1
CCGCGCCGAGGACTACCGCC: sgRNA targeting a luciferase-based reporter construct, no mismatches (chemistry not given here)	1
GGGCTCCAGGCTGCGCGCAA: sgRNA targeting a luciferase-based reporter construct, no mismatches (chemistry not given here)	1
AACGACATCACGGTCCATGC: sgRNA targeting a luciferase-based reporter construct, no mismatches (chemistry not given here)	1
GACAAAGGATACTCAAATCC: sgRNA targeting a luciferase-based reporter construct, no mismatches (chemistry not given here)	0
TTGACATCAGCGCGCGAGGC: sgRNA targeting a luciferase-based reporter construct, no mismatches (chemistry not given here)	1
TTGTTCGAAGATCTGCGCGA: sgRNA targeting a luciferase-based reporter construct, no mismatches (chemistry not given here)	1

Enquiry: Identify whether the reported Mean efficiency of the following substance is 0.2 or greater: ACCCTGTCCACTCATATATG: sgRNA targeting a luciferase-based reporter construct, no mismatches (chemistry not given here)
Return: 1

Enquiry: Does the reported Mean efficiency for GAACTCCGACTAGATTATAT: sgRNA targeting a luciferase-based reporter construct, no mismatches (chemistry not given here) fall at or above the 0.2 mark?
Return: 1

Enquiry: hey, is Mean efficiency for this one >= 0.2? GTCGGAACCTGAGTCGTTTT: sgRNA targeting a luciferase-based reporter construct, no mismatches (chemistry not given here)
Return: 1

Enquiry: Is it the case that AACTCAAAGACCCGCTTTCG: sgRNA targeting a luciferase-based reporter construct, no mismatches (chemistry not given here) has Mean efficiency reaching or exceeding 0.2?
Return: 0

Enquiry: Answer whether Mean efficiency of CCGTCGAAGAACCGCGCAAT: sgRNA targeting a luciferase-based reporter construct, no mismatches (chemistry not given here) is greater than or equal to 0.2.
Return: 1

Enquiry: Quick check, Mean efficiency >= 0.2? CAACCAACAGGTCCGGCCCC: sgRNA targeting a luciferase-based reporter construct, no mismatches (chemistry not given here)
Return: 1

Enquiry: Decide: is the reported value of Mean efficiency for ATATCGGAGTCGGCCCAACC: sgRNA targeting a luciferase-based reporter construct, no mismatches (chemistry not given here) equal to or greater than 0.2?
Return: 1

Enquiry: Entry AGTCCTCACCGTGGGGCACC: sgRNA targeting a luciferase-based reporter construct, no mismatches (chemistry not given here) : is its Mean efficiency no less than 0.2?
Return: 0

Enquiry: Given GGAGCGAGTTATCTATCCCC: sgRNA targeting a luciferase-based reporter construct, no mismatches (chemistry not given here) , state whether its Mean efficiency is at least 0.2.
Return: 0

Enquiry: Reported Mean efficiency at or above 0.2? CCAGTAACGTCAAAGCTAGG: sgRNA targeting a luciferase-based reporter construct, no mismatches (chemistry not given here)
Return: 0

Enquiry: Please tell me: is the substance TCGCGGGCTTGCATGACGCG: sgRNA targeting a luciferase-based reporter construct, no mismatches (chemistry not given here) at or over 0.2 in terms of Mean efficiency?
Return: 1

Enquiry: Does the substance AAGATAAGTTCTCTCCTATT: sgRNA targeting a luciferase-based reporter construct, no mismatches (chemistry not given here) have recorded Mean efficiency that is 0.2 or more?
Return: 0

Enquiry: // inclusive: Mean efficiency at least 0.2? input: TTGTTTGCTGGTACAAACGC: sgRNA targeting a luciferase-based reporter construct, no mismatches (chemistry not given here)
Return: 1
